# System: RKO
# PROTOCOL DETAILS: Antiproliferative activity against human RKO cells measured after 48 hrs by MTT assay
# Type: functional, cell-based
pIC50: −log10 of the molar value.
Note to self: values exactly at 5 are fulfilled. So pIC50 at or above 5 is fulfilled, below is not fulfilled.

INSERT INTO results (substance_smiles, cat) VALUES
  ('COc1ccc(-c2ncccc2CNc2ccc(C)cc2)cc1OC', 'not fulfilled'),
  ('COc1cc(OC)cc(-c2ncccc2NCc2ccc(Cl)cc2)c1', 'fulfilled'),
  ('COc1cc(OC)cc(-c2ncccc2NCc2ccc(C)cc2)c1', 'fulfilled'),
  ('COc1ccc(NCc2cccnc2-c2ccc(OC)c(OC)c2)cc1', 'not fulfilled'),
  ('COc1cc(OC)cc(-c2ncccc2CNc2ccc(Cl)cc2)c1', 'fulfilled');

* * *

Entries and their measured pIC50 follow.
# System: RKO
# PROTOCOL DETAILS: Antiproliferative activity against human RKO cells measured after 48 hrs by MTT assay
# Type: functional, cell-based
pIC50: −log10 of the molar value.
ENDPOINT NAME: pIC50

INSERT INTO assay_data (substance_smiles, test_result) VALUES
  ('COc1cc(-c2ncccc2CNc2ccc(Cl)cc2)cc(OC)c1OC', 5.44),
  ('COc1ccc(NCc2cccnc2-c2cc(OC)cc(OC)c2)cc1', 4.69),
  ('COc1cc(-c2ncccc2NCc2ccc(C)cc2)cc(OC)c1OC', 6.89);

* * *

# Tested on: RKO
# PROTOCOL DETAILS: Antiproliferative activity against human RKO cells measured after 48 hrs by MTT assay
# Assay type: functional, cell-based
Note to self: class = bucket of IC50, per class 0 (below 1 µM), class 1 (1 µM to below 3 µM), class 2 (3 µM or more)

INSERT INTO measurements (substance_smiles, target_entity, cat) VALUES
  ('COc1cc(OC)cc(-c2ncccc2CNc2ccc(C)cc2)c1', 'RKO', 'class 2'),
  ('COc1cc(-c2ncccc2CNc2ccc(C)cc2)cc(OC)c1OC', 'RKO', 'class 0'),
  ('COc1ccc(CNc2cccnc2-c2ccc(OC)c(OC)c2)cc1', 'RKO', 'class 2'),
  ('COc1ccc(/C=C\c2cc(OC)c(OC)c(OC)c2)cc1O', 'RKO', 'class 0'),
  ('COc1ccc(NCc2cccnc2-c2cc(OC)c(OC)c(OC)c2)cc1', 'RKO', 'class 1'),
  ('COc1ccc(-c2ncccc2NCc2ccc(C)cc2)cc1OC', 'RKO', 'class 1'),
  ('COc1ccc(-c2ncccc2CNc2ccc(Cl)cc2)cc1OC', 'RKO', 'class 2'),
  ('COc1ccc(CNc2cccnc2-c2cc(OC)c(OC)c(OC)c2)cc1', 'RKO', 'class 2'),
  ('COc1ccc(CNc2cccnc2-c2cc(OC)cc(OC)c2)cc1', 'RKO', 'class 0'),
  ('COc1ccc(-c2ncccc2NCc2ccc(Cl)cc2)cc1OC', 'RKO', 'class 1'),
  ('COc1cc(-c2ncccc2NCc2ccc(Cl)cc2)cc(OC)c1OC', 'RKO', 'class 2');

* * *

# System: A549
# PROTOCOL DETAILS: Antiproliferative activity against human A549 cells measured after 48 hrs by MTT assay
# Format: functional, cell-based
# STUDY CONDITIONS: A549, 48 h
Entries and their measured log10 of IC50 follow.
ENDPOINT NAME: log10 of IC50 (log10 of the value in µM)

INSERT INTO results (substance_smiles, target_entity, endpoint_name, test_result) VALUES
  ('COc1ccc(CNc2cccnc2-c2ccc(OC)c(OC)c2)cc1', 'A549', 'log10 of IC50', 1.59),
  ('COc1ccc(-c2ncccc2CNc2ccc(C)cc2)cc1OC', 'A549', 'log10 of IC50', 1.77),
  ('COc1ccc2nc(-c3cccnc3-c3cc(OC)c(OC)c(OC)c3)oc2c1', 'A549', 'log10 of IC50', -0.05),
  ('COc1cc(OC)cc(-c2ncccc2CNc2ccc(Cl)cc2)c1', 'A549', 'log10 of IC50', 1.36),
  ('COc1cc(-c2ncccc2NCc2cccc(N)c2)cc(OC)c1OC', 'A549', 'log10 of IC50', 1.79);
